experiment: Cytotoxicity against rat H9C2 cells assessed as cell viability at 100 uM measured after 24 hrs by MTT assay; format: cell-based; details: read-out: Activity
viability at 24 h, 100 µM listing for selected molecules.

Examples with their reported viability at 24 h, 100 µM follow.
| molecule | measurement.name | experimental.value |
| --- | --- | --- |
| O=C([O-])CNP([O-])(=S)c1ccccc1.[Li+].[Li+] (stereo not drawn) | viability at 24 h, 100 µM | > 90% |
| S=P1(c2ccccc2)NCCCO1 (stereo not drawn) | viability at 24 h, 100 µM | > 90% |

Looking up O=C([O-])[C@H](Cc1cc2ccccc2[nH]1)NP([O-])(=S)c1ccccc1.[Li+].[Li+] (stereo partly drawn) , I see its viability at 24 h, 100 µM listed as > 90%
